So I've got a bunch of sequences here, and I need their Kd values.
- target-or-test-system: HLA-B*44:03
- measurement-protocol: IEDB peptide-MHC binding, purified MHC/competitive/radioactivity; filed as Kd, often an IC50 or EC50 that approximates it; bounds were set here for any values at or beyond the usual limits of such assays
- experimental-conditions: source organism: Dengue virus 4 Philippines/H241/1956
Give me the value, and tack the unit on after it.

IEREIPERSW: 649 nM

Below are 2 sequences. Give each one its Kd.
1. VEMGEAAAIF
2. NERRAWNFL

["166 nM", "2090 nM"]

* * *

- target-or-test-system: HLA-A*68:02
- measurement-protocol: IEDB peptide-MHC binding, purified MHC/competitive/fluorescence; bounds were set here for any values at or beyond the usual limits of such assays
- experimental-conditions: source organism: Rattus norvegicus
value-type: pIC50
Give bare numbers, as −log10 of the molar value.

Request body: readout pIC50, system HLA-A*68:02, query SLLERGQQLGV . Return the value. 6.04
